B1: ZBED2 (parent)
chain: FHLAPARAGHHPNQYATCRLCGRQ

# Variants of: B1
# ASSAY PROCEDURE: protein stability index of a GFP-peptide fusion (GPS, HEK-293T) (PSI 1-6); higher = more stable;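 further: lentivirally expressed fusions sorted by FACS into six bins by GFP to DsRed ratio, PSI derived from sequencing read proportions per bin multiplied by bin number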
# TEST PARAMETERS: c terminus: a fixed tail appended
Output true (1) for protein stability index not less than 2; output false (0) otherwise.

R7A: false (0)
A6I: false (0)
R7C: true (1)
A6T: false (0)
G22M: false (0)
F1E: true (1)

State whether the measured protein stability index reaches 2, counting equality as reaching it, for Y15V false (0)

State whether the measured protein stability index reaches 2, counting equality as reaching it, for L3V false (0)

The measured values listed here are drawn from the supplement of paper PMC10567573.
